Assay: Metabolic stability in human liver microsomes
Type: in vitro ADME
Conditions: 1 μM, 37° C., NADPH
Catalogue of compounds with associated recovery at 1 μM
readout_type: recovery at 1 μM (%)

• CCC(C)[C@H](NC(=O)[C@@]1(NC(=O)[C@@H](NC(=O)OCc2ccccc2)C(C)CC)CCc2[nH]c3c(OC)cccc3c2C1)C(N)=O (stereo partly drawn) [Example 294 from WO 03/051837 A2, reference compound] = 0
• CCC(C)[C@H](NC(=O)[C@@]1(NC(=O)[C@@H](NC(=O)OCc2ccccc2)C(C)CC)CCc2[nH]c3c(Cl)cc(Cl)cc3c2C1)C(N)=O (stereo partly drawn) [Example 295 from WO 03/051837 A2, reference compound] = 0
• CCC(C)[C@H](NC(=O)OCc1ccccc1)C(=O)N[C@]1(C(=O)N[C@H](C(N)=S)C(C)CC)CCc2[nH]c3c(Cl)cc(Cl)cc3c2C1 (stereo partly drawn) [Compound 7] = 65

src = patent US8067456B2
